Tested on: carbapenem-susceptible A. baumannii isolates (n = 54)
Test: MIC, broth microdilution (EUCAST), carbapenem-susceptible A. baumannii isolates
Format: cell-based, Acinetobacter baumannii
Settings: Acinetobacter baumannii, isolate Ab150; ST 2184; ADC-like, OXA-64; in combinations ETZ fixed at 8 mg/L
measuredAttribute: MIC
Value and unit, in that order.

Here is how some compounds turned out for MIC.
compound: C[n+]1ccn(C[C@@]2(C)[C@H](C(=O)[O-])N3C(=O)C[C@H]3S2(=O)=O)n1
MIC: 4 µg/mL
--
compound: CC1(C)[C@H](C(=O)O)N2C(=O)C[C@H]2S1(=O)=O
MIC: 2 µg/mL
--
compound: C[C@@H](O)[C@H]1C(=O)N2C(C(=O)O)=C(SCCN=CN)C[C@H]12
MIC: 0.25 µg/mL

// next entry
Query: Using the record for CO/N=C(\C(=O)N[C@@H]1C(=O)N2C(C(=O)[O-])=C(C[N+]3(C)CCCC3)CS[C@H]12)c1csc(N)n1 [cefepime] , report its MIC.
Response: 2 µg/mL

====

Tested on: carbapenem-susceptible A. baumannii isolates (n = 54)
Assay: MIC, broth microdilution (EUCAST), carbapenem-susceptible A. baumannii isolates
Assay type: cell-based, Acinetobacter baumannii
Details: Acinetobacter baumannii, isolate Ab139; ST 54; ADC-like, OXA-365; in combinations ETZ fixed at 8 mg/L
measuredAttribute: MIC (µg/mL)
Answers are plain numbers, in µg/mL.

molecule: C[n+]1ccn(C[C@@]2(C)[C@H](C(=O)[O-])N3C(=O)C[C@H]3S2(=O)=O)n1
measuredAttribute: MIC
unitAnnotation: µg/mL
numericValue: 4

// input: 3 molecules below; output: MIC for each
1. CC1(C)[C@H](C(=O)O)N2C(=O)C[C@H]2S1(=O)=O
2. C[C@@H](O)[C@H]1C(=O)N2C(C(=O)O)=C(SCCN=CN)C[C@H]12
3. CO/N=C(\C(=O)N[C@@H]1C(=O)N2C(C(=O)[O-])=C(C[N+]3(C)CCCC3)CS[C@H]12)c1csc(N)n1 [cefepime]

Response:
1
0.25
2

====

Kindly state MIC for each of the entries shown.
Test system: A. non-baumannii isolates (n = 87)
Experiment: MIC, broth microdilution (EUCAST), A. non-baumannii isolates
Format: cell-based, Acinetobacter spp. (non-baumannii)
Conditions: Acinetobacter nosocomialis, isolate NO-Ab98, Acinetobacter nosocomialis; in combinations ETZ fixed at 8 mg/L; read-out: MIC
Give bare numbers, in µg/mL.

Recorded MIC, per entry:
molecule: C[n+]1ccn(C[C@@]2(C)[C@H](C(=O)[O-])N3C(=O)C[C@H]3S2(=O)=O)n1 [enmetazobactam]
assayTarget: A. non-baumannii isolates (n = 87)
measuredAttribute: MIC
numericValue: 2
--
molecule: CO/N=C(\C(=O)N[C@@H]1C(=O)N2C(C(=O)[O-])=C(C[N+]3(C)CCCC3)CS[C@H]12)c1csc(N)n1 [cefepime]
assayTarget: A. non-baumannii isolates (n = 87)
measuredAttribute: MIC
numericValue: 2
--
molecule: CC1(C)[C@H](C(=O)O)N2C(=O)C[C@H]2S1(=O)=O [sulbactam]
assayTarget: A. non-baumannii isolates (n = 87)
measuredAttribute: MIC
numericValue: 2

Let us examine a further case.
Query: What does the data say about its MIC? Entry: C[C@@H](O)[C@H]1C(=O)N2C(C(=O)O)=C(SCCN=CN)C[C@H]12 [imipenem]
Response: 0.12

====

Test system: A. non-baumannii isolates (n = 87)
Test: MIC, broth microdilution (EUCAST), A. non-baumannii isolates
Format: cell-based, Acinetobacter spp. (non-baumannii)
Settings: Acinetobacter lactucae, isolate NO-Ab60, Acinetobacter dijkshoorniae; in combinations ETZ fixed at 8 mg/L; read-out: MIC
measuredAttribute: MIC

Example compounds with recorded MIC:
compound: C[C@@H](O)[C@H]1C(=O)N2C(C(=O)O)=C(SCCN=CN)C[C@H]12
MIC: 0.25 µg/mL
--
compound: CC1(C)[C@H](C(=O)O)N2C(=O)C[C@H]2S1(=O)=O
MIC: 1 µg/mL
--
compound: C[n+]1ccn(C[C@@]2(C)[C@H](C(=O)[O-])N3C(=O)C[C@H]3S2(=O)=O)n1
MIC: 4 µg/mL

Consider now this further compound.
Query: I am curious: what MIC value has been reported for CO/N=C(\C(=O)N[C@@H]1C(=O)N2C(C(=O)[O-])=C(C[N+]3(C)CCCC3)CS[C@H]12)c1csc(N)n1 [cefepime] ?
Response: 2 µg/mL

====

System: carbapenem-susceptible A. baumannii isolates (n = 54)
Experiment: MIC, broth microdilution (EUCAST), carbapenem-susceptible A. baumannii isolates
Format: cell-based, Acinetobacter baumannii
Settings: Acinetobacter baumannii, isolate Ab128; ST 2176; ADC-2, OXA-64; in combinations ETZ fixed at 8 mg/L
measuredAttribute: MIC (µg/mL)
Give bare numbers, in µg/mL.

molecule: CO/N=C(\C(=O)N[C@@H]1C(=O)N2C(C(=O)[O-])=C(C[N+]3(C)CCCC3)CS[C@H]12)c1csc(N)n1 [cefepime]
assayTarget: carbapenem-susceptible A. baumannii isolates (n = 54)
unitAnnotation: µg/mL
MIC: 1

molecule: C[C@@H](O)[C@H]1C(=O)N2C(C(=O)O)=C(SCCN=CN)C[C@H]12
assayTarget: carbapenem-susceptible A. baumannii isolates (n = 54)
unitAnnotation: µg/mL
MIC: 0.12

molecule: CC1(C)[C@H](C(=O)O)N2C(=O)C[C@H]2S1(=O)=O
assayTarget: carbapenem-susceptible A. baumannii isolates (n = 54)
unitAnnotation: µg/mL
MIC: 1

Then this molecule:
Query: # query: MIC of entry `C[n+]1ccn(C[C@@]2(C)[C@H](C(=O)[O-])N3C(=O)C[C@H]3S2(=O)=O)n1`
Response: 2

====

For each of the compounds below, state its MIC.
Test system: carbapenem-resistant A. baumannii (CRAB) isolates (n = 67)
Assay: MIC, broth microdilution (EUCAST), carbapenem-resistant A. baumannii isolates
Assay type: cell-based, Acinetobacter baumannii
Conditions: Acinetobacter baumannii, isolate Ab134; ST 2; ADC-30, OXA-66, OXA-58, TEM-12; ETZ fixed 8 mg/L in combinations
Description: The bacterial strains used in this study comprised 208 clinical isolates from the Spanish National Acinetobacter spp. […] The antimicrobial susceptibility of the 208 Acinetobacter spp. isolates was assessed using the broth microdilution method, as described in the European Committee on Antimicrobial Susceptibility Testing (EUCAST) v.15 guidelines (http://www.eucast.org/clinical_breakpoints). […] MICs for enmetazobactam alone were assessed as well. […]
Answers are plain numbers, in µg/mL.

These recorded examples may help you get a feel for the data.
compound: CC1(C)[C@H](C(=O)O)N2C(=O)C[C@H]2S1(=O)=O [sulbactam]
measuredAttribute: MIC
unitAnnotation: µg/mL
numericValue: 32

compound: CO/N=C(\C(=O)N[C@@H]1C(=O)N2C(C(=O)[O-])=C(C[N+]3(C)CCCC3)CS[C@H]12)c1csc(N)n1 [cefepime]
measuredAttribute: MIC
unitAnnotation: µg/mL
numericValue: 16

compound: C[C@@H](O)[C@H]1C(=O)N2C(C(=O)O)=C(SCCN=CN)C[C@H]12 [imipenem]
measuredAttribute: MIC
unitAnnotation: µg/mL
numericValue: 16

Note: attention shifts to another entry.
Query: What value of MIC has been reported for the following compound? C[n+]1ccn(C[C@@]2(C)[C@H](C(=O)[O-])N3C(=O)C[C@H]3S2(=O)=O)n1 [enmetazobactam]
Response: 8

====

Test system: carbapenem-susceptible A. baumannii isolates (n = 54)
Assay: MIC, broth microdilution (EUCAST), carbapenem-susceptible A. baumannii isolates
Assay type: cell-based, Acinetobacter baumannii
Conditions: Acinetobacter baumannii, isolate Ab202; ST 1; ADC-11, OXA-69; in combinations ETZ fixed at 8 mg/L
Please provide measured MIC for the entries that follow.
Numbers only, in µg/mL.

Some solved cases for reference:
molecule: C[n+]1ccn(C[C@@]2(C)[C@H](C(=O)[O-])N3C(=O)C[C@H]3S2(=O)=O)n1 [enmetazobactam]
MIC [µg/mL]: 2
//
molecule: CC1(C)[C@H](C(=O)O)N2C(=O)C[C@H]2S1(=O)=O [sulbactam]
MIC [µg/mL]: 1
//
molecule: CO/N=C(\C(=O)N[C@@H]1C(=O)N2C(C(=O)[O-])=C(C[N+]3(C)CCCC3)CS[C@H]12)c1csc(N)n1 [cefepime]
MIC [µg/mL]: 2

// next entry
Query: MIC lookup needed for C[C@@H](O)[C@H]1C(=O)N2C(C(=O)O)=C(SCCN=CN)C[C@H]12 [imipenem] , thanks.
Response: 0.12

====

Test system: A. non-baumannii isolates (n = 87)
Test: MIC, broth microdilution (EUCAST), A. non-baumannii isolates
Format: cell-based, Acinetobacter spp. (non-baumannii)
Conditions: Acinetobacter ursingii, isolate NO-Ab87, Acinetobacter ursingii; in combinations ETZ fixed at 8 mg/L; read-out: MIC
Procedure: The bacterial strains used in this study comprised 208 clinical isolates from the Spanish National Acinetobacter spp. […] The antimicrobial susceptibility of the 208 Acinetobacter spp. isolates was assessed using the broth microdilution method, as described in the European Committee on Antimicrobial Susceptibility Testing (EUCAST) v.15 guidelines (http://www.eucast.org/clinical_breakpoints). […] MICs for enmetazobactam alone were assessed as well. […]
Please go through the items and note down their MIC.
One number for each entry, in µg/mL.

molecule: CO/N=C(\C(=O)N[C@@H]1C(=O)N2C(C(=O)[O-])=C(C[N+]3(C)CCCC3)CS[C@H]12)c1csc(N)n1 [cefepime]
MIC [µg/mL]: 0.25

Your task in this section: give MIC for each listed record.
1. C[n+]1ccn(C[C@@]2(C)[C@H](C(=O)[O-])N3C(=O)C[C@H]3S2(=O)=O)n1
2. CC1(C)[C@H](C(=O)O)N2C(=O)C[C@H]2S1(=O)=O

Response:
1. 0.5
2. 0.12
